method.summary: self-splicing fitness, log relative to wild type (ln ratio); higher = more splicing; Tetrahymena group I intron in knt gene, E. coli kanamycin selection, DiMSum; sequences stand for … in CUCUCU…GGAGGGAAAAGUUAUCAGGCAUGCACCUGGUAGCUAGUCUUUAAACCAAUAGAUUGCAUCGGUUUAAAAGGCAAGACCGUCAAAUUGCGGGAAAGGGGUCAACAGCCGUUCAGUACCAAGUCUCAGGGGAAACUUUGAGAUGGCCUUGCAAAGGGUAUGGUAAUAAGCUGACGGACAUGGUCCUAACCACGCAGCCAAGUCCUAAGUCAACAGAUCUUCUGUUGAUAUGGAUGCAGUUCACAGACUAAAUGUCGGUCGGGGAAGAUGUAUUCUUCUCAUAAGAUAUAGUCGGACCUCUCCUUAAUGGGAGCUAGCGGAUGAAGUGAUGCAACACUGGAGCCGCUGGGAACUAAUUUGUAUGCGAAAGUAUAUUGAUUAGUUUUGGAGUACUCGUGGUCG;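 further: selection with 25 µg/mL kanamycin versus none on LB agar overnight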
test.settings: 37 °C
attribute.measured: self-splicing fitness (ln)
Answer using only a numeral; do not append any unit.

query: self-splicing fitness (ln) lookup needed for `GAAAAGCAAUAUUACGCCUA` , thanks.
result: -0.681

query: If you can, please state the reported self-splicing fitness (ln) value of `GCAGAGCAAUAUUACGCGAG` .
result: -2.46

query: Value lookup for self-splicing fitness (ln); key = `ACGGAGCAAUAUUACGAGAU`
result: 0.0618

----------
method.summary: self-splicing fitness, log relative to wild type (ln ratio); higher = more splicing; Tetrahymena group I intron in knt gene, E. coli kanamycin selection, DiMSum; sequences stand for … in CUCUCU…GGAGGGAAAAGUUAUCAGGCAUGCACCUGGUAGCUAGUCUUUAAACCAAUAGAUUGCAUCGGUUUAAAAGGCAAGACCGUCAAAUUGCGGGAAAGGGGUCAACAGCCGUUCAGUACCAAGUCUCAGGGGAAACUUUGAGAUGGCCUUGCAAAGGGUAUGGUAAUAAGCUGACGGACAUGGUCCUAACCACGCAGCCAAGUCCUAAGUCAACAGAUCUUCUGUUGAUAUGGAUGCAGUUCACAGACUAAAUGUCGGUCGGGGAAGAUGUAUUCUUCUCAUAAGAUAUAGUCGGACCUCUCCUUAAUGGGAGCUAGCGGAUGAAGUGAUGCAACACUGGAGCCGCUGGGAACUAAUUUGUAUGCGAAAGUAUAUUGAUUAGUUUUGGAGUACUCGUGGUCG
test.settings: 30 °C
The label depends only on self-splicing fitness (ln): yes (1) if it is at least -3, no (0) if it is smaller.

query: Could you verify whether the entry `UUCCAGCAAUAUUACGCAAU` shows self-splicing fitness (ln) of no less than -3?
result: yes (1)

query: Given the entry `UAUUAGCAAUAUUACGCGGU` , answer whether its self-splicing fitness (ln) meets or surpasses -3.
result: no (0)

query: Is it the case that `ACGGAGCAAUAUUACGCCUG` has self-splicing fitness (ln) reaching or exceeding -3?
result: no (0)

query: hey, is self-splicing fitness (ln) for this one >= -3? `AGAUAGCAAUAUUACGCUCG`
result: yes (1)

query: State whether the measured self-splicing fitness (ln) reaches -3, counting equality as reaching it, for `CGUUAGCAAUAUUACGUUCA`
result: yes (1)

query: Determine whether this sequence has self-splicing fitness (ln) no lower than -3: `UUCGAGCAAUAUUACGAAGC`
result: yes (1)

query: Please check the record `UCACAGCAAUAUUACGCACA` and state if its self-splicing fitness (ln) is at or above -3.
result: yes (1)

query: Is the recorded value of self-splicing fitness (ln) equal to or greater than -3 for this sequence? `GGGUAGCAAUAUUACGUGCG`
result: yes (1)

query: Please check the record `AACCAGCAAUAUUACGAAUA` and state if its self-splicing fitness (ln) is at or above -3.
result: yes (1)

query: Please indicate if the recorded self-splicing fitness (ln) for `CUACAGCAAUAUUACGUUCU` meets or exceeds -3.
result: yes (1)

query: Could you tell me if the measured self-splicing fitness (ln) of `GACAAGCAAUAUUACGCUGC` reaches -3 or more?
result: no (0)

query: Identify whether the reported self-splicing fitness (ln) of the following sequence is -3 or greater: `AUCCAGCAAUAUUACGGGCC`
result: yes (1)

query: Record `GCAUAGCAAUAUUACGCGCG` ; criterion: self-splicing fitness (ln) no lower than -3. Met?
result: yes (1)

query: Record `CUAAAGCAAUAUUACGCUUG` ; criterion: self-splicing fitness (ln) no lower than -3. Met?
result: yes (1)

query: Given the entry `GAAAAGCAAUAUUACGUUAC` , answer whether its self-splicing fitness (ln) meets or surpasses -3.
result: yes (1)

query: Kindly determine if self-splicing fitness (ln) recorded for `UGGCAGCAAUAUUACGACCA` is above or exactly -3.
result: yes (1)

query: Determine whether measured self-splicing fitness (ln) meets or exceeds -3 for `GUGUAGCAAUAUUACGACGU`
result: yes (1)

query: Exam item: decide whether the reported self-splicing fitness (ln) for `CGAGAGCAAUAUUACGGACC` is at least -3.
result: no (0)

query: Check this sequence for self-splicing fitness (ln) at or above -3: `CCAUAGCAAUAUUACGGCCU`
result: no (0)

query: Reported self-splicing fitness (ln) reaches at least -3 for `GGAGAGCAAUAUUACGAGUA` ?
result: no (0)

query: API: above_or_equal(metric=self-splicing fitness (ln), cutoff=-3) for item `UAGUAGCAAUAUUACGGGCU`
result: yes (1)

query: Please tell me: is the sequence `CACCAGCAAUAUUACGAACU` at or over -3 in terms of self-splicing fitness (ln)?
result: no (0)

query: Record `UGCCAGCAAUAUUACGCUAG` ; criterion: self-splicing fitness (ln) no lower than -3. Met?
result: no (0)

query: Reported self-splicing fitness (ln) at or above -3? `CAGCAGCAAUAUUACGUAAG`
result: yes (1)

query: Is the recorded value of self-splicing fitness (ln) equal to or greater than -3 for this sequence? `GUUCAGCAAUAUUACGGUCU`
result: yes (1)

query: Form field: self-splicing fitness (ln) at least -3? Entry: `UACGAGCAAUAUUACGGGUU`
result: yes (1)

query: Check the entry `CAACAGCAAUAUUACGAGUC` : does self-splicing fitness (ln) equal or exceed -3?
result: no (0)

query: Is it the case that `AGCAAGCAAUAUUACGGGCC` has self-splicing fitness (ln) reaching or exceeding -3?
result: no (0)

query: Would you say `UCAUAGCAAUAUUACGUGUA` shows self-splicing fitness (ln) at minimum -3?
result: yes (1)

query: Does the reported self-splicing fitness (ln) for `AUUCAGCAAUAUUACGGCGA` fall at or above the -3 mark?
result: yes (1)

query: Textbook exercise: given the entry `UCAAAGCAAUAUUACGCAAC` , state whether its self-splicing fitness (ln) is greater than or equal to -3.
result: no (0)

query: self-splicing fitness (ln) >= -3 for `ACCCAGCAAUAUUACGACAA` ?
result: yes (1)

query: Would you say `ACCCAGCAAUAUUACGCUCA` shows self-splicing fitness (ln) at minimum -3?
result: yes (1)

query: I'd appreciate it if you could say whether `GUUGAGCAAUAUUACGUCGC` has self-splicing fitness (ln) at least equal to -3.
result: yes (1)

query: In plain terms: is recorded self-splicing fitness (ln) at least -3 for `UUAUAGCAAUAUUACGUCGG` ?
result: yes (1)

query: I'd appreciate it if you could say whether `GCAGAGCAAUAUUACGUUGA` has self-splicing fitness (ln) at least equal to -3.
result: yes (1)

query: Check if self-splicing fitness (ln) >= -3 (inclusive). Item: `CACGAGCAAUAUUACGGCGU`
result: yes (1)

query: Determine whether measured self-splicing fitness (ln) meets or exceeds -3 for `UUAAAGCAAUAUUACGGCUG`
result: yes (1)

query: Determine whether this sequence has self-splicing fitness (ln) no lower than -3: `GAAAAGCAAUAUUACGAGUU`
result: yes (1)

query: Identify whether the reported self-splicing fitness (ln) of the following sequence is -3 or greater: `GGCAAGCAAUAUUACGCUAC`
result: no (0)

query: Does self-splicing fitness (ln) meet or surpass -3 for `CAACAGCAAUAUUACGUAAG` ?
result: yes (1)

query: For this sequence, is measured self-splicing fitness (ln) -3 or higher? `UAACAGCAAUAUUACGAUGG`
result: yes (1)
